The origin of these recorded values is ChEMBL document CHEMBL2417544.

Reported MIC80 values for the following compounds.
System: Staphylococcus aureus
Assay: Antibacterial activity against Staphylococcus aureus ATCC 25923 by standard dilution assay
Type: functional

{"columns": ["cpd_smiles", "MIC80"],
 "data": [
  ["CC[C@H]1OC(=O)[C@H](C)[C@@H](O[C@H]2C[C@@](C)(OC)[C@@H](OC(=O)NCCO[C@@H]3O[C@H](CO)[C@@H](O[C@H]4O[C@H](CO)[C@@H](O)[C@H](O)[C@H]4O)[C@H](O)[C@H]3O)[C@H](C)O2)[C@H](C)[C@@H](O[C@@H]2O[C@H](C)C[C@H](N(C)C)[C@H]2O)[C@](C)(O)C[C@@H](C)CN(C)[C@H](C)[C@H]2OC(=O)O[C@@]21C", "32 µg/mL"],
  ["CC[C@H]1OC(=O)[C@H](C)[C@@H](O[C@H]2C[C@@](C)(OC)[C@@H](OC(=O)NCCO[C@@H]3O[C@H](CO)[C@@H](O)[C@H](O)[C@H]3O)[C@H](C)O2)[C@H](C)[C@@H](O[C@@H]2O[C@H](C)C[C@H](N(C)C)[C@H]2O)[C@](C)(O)C[C@@H](C)CN(C)[C@H](C)[C@H]2OC(=O)O[C@@]21C", "8 µg/mL"],
  ["CC[C@H]1OC(=O)[C@H](C)[C@@H](O[C@H]2C[C@@](C)(OC)[C@@H](OC(=O)NCCO[C@@H]3O[C@H](CO)[C@@H](O[C@@H]4O[C@H](CO)[C@@H](O)[C@H](O)[C@H]4O)[C@H](O)[C@H]3O)[C@H](C)O2)[C@H](C)[C@@H](O[C@@H]2O[C@H](C)C[C@H](N(C)C)[C@H]2O)[C@](C)(O)C[C@@H](C)CN(C)[C@H](C)[C@H]2OC(=O)O[C@@]21C", "16 µg/mL"]
]}
